Source of measurements: PubChem BioAssay (NCI)

system: XF 498 CNS; assay: NCI tumour cell line growth inhibition, 48 h
Assign TGI to each entry below.

Problem: Query the reported TGI for XF 498 CNS; item: O=C(CN1CCN(c2cccc(Cl)c2)CC1)N1CCc2c([nH]c3ccccc23)C1c1cccnc1 (stereo unspecified)
Solution: 35.9 µM

Problem: Enter reported TGI observed with XF 498 CNS for COc1ccc(OC)c(C#N)c1C#N (tested in a mixture with another compound)
Solution: > 100 µM

Problem: // lookup TGI | system=XF 498 CNS | key= CCNc1cnc2c(n1)c(=O)n(C)c(=O)n2C
Solution: > 100 µM

Problem: // lookup TGI | system=XF 498 CNS | key= COC(=O)C1=C(C=O)C2C=CC1C2 (stereo unspecified)
Solution: 65.3 µM

Problem: Identify the measured TGI of CC1OC(n2cc(Cl)c(=O)[nH]c2=O)C=C(OC(=O)c2ccccc2)C1=O (stereo unspecified) for XF 498 CNS.
Solution: > 100 µM

Problem: For the record Cc1cccc(C)c1NC(=O)C(=O)C(C#N)c1ccccc1 (stereo unspecified) , what value of TGI is listed for XF 498 CNS?
Solution: > 100 µM

---

tested on: NCI/ADR-RES ovarian; test: NCI tumour cell line growth inhibition, 48 h
REPORTED ENDPOINT: GI50

Problem: GI50 for c1ccc(CC(Cc2ccccc2)C2=NCCCN2)cc1 ?
Solution: 2990 nM

Problem: What value of GI50 has been recorded for this entry: Cc1nn2c(/C=N/N=C(N)N)c(-c3ccc(Cl)c([N+](=O)[O-])c3)nc2s1
Solution: 3610 nM

Problem: GI50 for Cc1cc2cn3c4ccc(O)cc4nc(N)c3c2cc1C ?
Solution: < 20.4 nM

Problem: Suppose we examine the compound CCOC(=O)/C(C#N)=C\C=C(\Sc1nc2ccccc2s1)c1ccc(Cl)cc1 ; what GI50 value has been reported?
Solution: 27500 nM

Problem: Which GI50 value is on record for O=C1C=CC2(O)OC/C(=C\c3ccccc3)C(O)=C2C1=O (stereo not drawn) ?
Solution: 2570 nM

Problem: // lookup GI50 for O=c1ccccc(-c2ccc(Br)cc2)c1O
Solution: 289 nM

Problem: State the recorded GI50 for this entry: C[CH2][Pb]([CH2]C)([CH2]C)[O]C(=O)COC
Solution: 785 nM

Problem: Param item = COc1cccc2c1O/C(=C\c1ncc([N+](=O)[O-])n1C)C2=O ; retrieve measured GI50.
Solution: 277 nM

Problem: Quick one: GI50 for COc1cc(-c2nn(-c3cccc(NC(=O)Nc4cccc(C(F)(F)F)c4)c3)cc2-c2ccncc2)ccc1Cl ?
Solution: 696 nM

Problem: Look up GI50: Cc1nc2cc(-c3nn(C(C)C)c4ncnc(N)c34)ccc2o1
Solution: 26.7 nM

Problem: Can you look up the measured GI50 of Nc1nc2cc(O)ccc2n2cc3c(F)cccc3c12 for me?
Solution: 964 nM

Problem: Value lookup for GI50; key = Cc1ccc(CN(C)c2ccc(CO)c(Cl)c2)cc1
Solution: 16100 nM

Problem: I am curious: what GI50 value has been reported for NCCCCCn1c2c(c3ccccc3c1=O)C(=O)c1ccccc1-2 ?
Solution: 1410 nM

---

system: EKVX NSCLC; assay: NCI tumour cell line growth inhibition, 48 h; in the data active = GI50 below about 0.43 µM; inactive = the rest
Hi! Could you answer with just one of these? YES (active), NO (inactive)

Problem: Check the results log: what was the call for C=[CH][Sn]([CH]=C)([S]c1cccc2cccnc12)[S]c1cccc2cccnc12 ?
Solution: NO

Problem: What outcome does the record of this test show for C[CH2][Sn]([CH2]C)([O]C(=O)c1c(F)cccc1F)[O][Sn]([CH2]C)([CH2]C)[O]C(=O)c1c(F)cccc1F ?
Solution: NO

Problem: Which outcome was assigned to Cc1nc2cc(-c3nn(C(C)C)c4ncnc(N)c34)ccc2o1 in this test?
Solution: YES

Problem: Per the assay record, what outcome was assigned to CCN(CC)CC(O)CNc1c2ccc(Cl)cc2nc2ccc(OC)cc12 (stereo not given) ?
Solution: YES

Problem: Any idea what this test logged for COc1ccc(/C=C/C2C(C#N)=C(N)OC3=C2C(=O)CCC3)cc1 (stereo not given) ?
Solution: NO

---

tested on: KM12 colon; test: NCI tumour cell line growth inhibition, 48 h
REPORTED ENDPOINT: GI50

Problem: I'm curious: which GI50 was measured for Cc1ccc(CN(C)c2ccc(CO)c(Cl)c2)cc1 tested on KM12 colon?
Solution: 21.3 µM

Problem: So what GI50 did O=C1C=CC2(O)OC/C(=C\c3ccccc3)C(O)=C2C1=O (stereo not given) get with KM12 colon?
Solution: 1.4 µM

Problem: Give the reported GI50 for Cn1c(-c2ccncc2)c(-c2ccc(F)cc2)c2ncccc21 (system: KM12 colon).
Solution: > 25 µM

Problem: Missing value: GI50, KM12 colon, entry CCc1ccc(C(=O)/C=C/C23c4ccccc4C(c4ccccc42)C2C(=O)NC(=O)C23)cc1 (stereo not given) . Fill in?
Solution: 1.82 µM

Problem: Look up GI50 with KM12 colon for this molecule: Cc1cc(=O)n2nnc3c4ccccc4ccc3n12
Solution: 10.6 µM

Problem: Under KM12 colon: GI50 value of O=C(O)c1ccc(NCc2nc3cc(Cl)c(Cl)cc3[nH]2)cc1 ?
Solution: > 100 µM

Problem: Reported GI50 for KM12 colon, given CC(=O)N1CCC(Nc2ncc3cc(Oc4ccc(F)cc4F)c(=O)n(C)c3n2)CC1 ?
Solution: > 25 µM

Problem: # get_value(readout= GI50, system= KM12 colon) for Cc1cc(Cl)ccc1OCc1nn2c(CCCCc3nnc4sc(COc5ccc(Cl)cc5C)nn34)nnc2s1
Solution: 17.2 µM

Problem: Lookup: GI50 / KM12 colon / C[CH2][Sn]([CH2]C)([O]C(=O)c1c(F)cccc1F)[O][Sn]([CH2]C)([CH2]C)[O]C(=O)c1c(F)cccc1F
Solution: > 100 µM

Problem: Lab note: need GI50 with KM12 colon for entry CCN(CC)CC(O)CNc1c2ccc(Cl)cc2nc2ccc(OC)cc12 (stereo not given) , please look it up.
Solution: 0.512 µM

---

test system: HOP-18 NSCLC; assay: NCI tumour cell line growth inhibition, 48 h
Please respond with reported TGI for every item in the list.
Use µM as the unit, but write only the number.

Problem: Which measured TGI value corresponds to COC1/C(=C\c2ccccc2I)c2ccccc2N1C(C)=O (stereo unspecified) ?
Solution: 38.1

Problem: Consider the compound O=C1C2c3[nH]c4ccccc4c3C3CCCCC3C2C(=O)N1c1ccccc1 (stereo unspecified) and give its measured TGI.
Solution: 95.2

Problem: Consider the compound shown here: CN(C)CC1CC/C(=C\c2ccc(Cl)cc2)C1=O (stereo unspecified) What is its recorded TGI?
Solution: 34

---

test system: COLO 205 colon; assay: NCI tumour cell line growth inhibition, 48 h
Rule: TGI under 50 µM gives Criterion not met, otherwise Criterion met.

Problem: Decide: is the reported value of TGI for C=C(CCOC)CCC1CCCCC/C1=N\N(C)C (stereo unspecified) equal to or greater than 50 µM?
Solution: Criterion met

Problem: Form field: TGI at least 50 µM? Entry: O=S(=O)(c1ccccc1)n1c(C(O)c2ccccc2)cc2ccccc21 (stereo unspecified)
Solution: Criterion not met

Problem: Quick check, TGI >= 50 µM? S=C(S)N1CCCCC1
Solution: Criterion met

Problem: Is TGI for C=C(C)c1cc(C(C)(C)C)cc(C(=C)C)c1S(C)(=O)=O at or above 50 µM?
Solution: Criterion met

Problem: Can CCOC(=O)[C@H]1Nc2ccc(Cl)cc2[C@H]2CCC[C@@H]12 be said to have TGI at or above 50 µM?
Solution: Criterion met

Problem: Answer whether TGI of COc1cc2nn(-c3ccccc3)nc2c2nonc12 is greater than or equal to 50 µM.
Solution: Criterion met

Problem: Check if TGI >= 50 µM (inclusive). Item: Cc1ccc(NC(=O)CC(=O)N2N=C(N(C)c3ccccc3)CC2c2ccccc2)cc1 (stereo unspecified)
Solution: Criterion met

Problem: Could you tell me if the measured TGI of COC(=O)C1=C(C=O)C2C=CC1C2 (stereo unspecified) reaches 50 µM or more?
Solution: Criterion met

Problem: TGI >= 50 µM for C[CH2][Pb]([CH2]C)([CH2]C)[O]C(=O)COC ?
Solution: Criterion not met

Problem: Assess whether reported TGI for C[N+](C)(CCNc1ccc(NCC[N+](C)(C)Cc2ccc([N+](=O)[O-])cc2)c2c1C(=O)c1ccccc1C2=O)Cc1ccc([N+](=O)[O-])cc1 sits at 50 µM or higher.
Solution: Criterion met

Problem: Please indicate if the recorded TGI for COc1ccc(C2C=C(c3ccc(OC)c(OC)c3)N=C3SC=CN32)c(Br)c1 (stereo unspecified) meets or exceeds 50 µM.
Solution: Criterion not met
